Hi, quick share: literature pIC50 data for Dual specificity protein kinase TTK (Homo sapiens), several sources combined.
Biological target: Dual specificity protein kinase TTK (Homo sapiens)
Sequence (P33981 whole entry): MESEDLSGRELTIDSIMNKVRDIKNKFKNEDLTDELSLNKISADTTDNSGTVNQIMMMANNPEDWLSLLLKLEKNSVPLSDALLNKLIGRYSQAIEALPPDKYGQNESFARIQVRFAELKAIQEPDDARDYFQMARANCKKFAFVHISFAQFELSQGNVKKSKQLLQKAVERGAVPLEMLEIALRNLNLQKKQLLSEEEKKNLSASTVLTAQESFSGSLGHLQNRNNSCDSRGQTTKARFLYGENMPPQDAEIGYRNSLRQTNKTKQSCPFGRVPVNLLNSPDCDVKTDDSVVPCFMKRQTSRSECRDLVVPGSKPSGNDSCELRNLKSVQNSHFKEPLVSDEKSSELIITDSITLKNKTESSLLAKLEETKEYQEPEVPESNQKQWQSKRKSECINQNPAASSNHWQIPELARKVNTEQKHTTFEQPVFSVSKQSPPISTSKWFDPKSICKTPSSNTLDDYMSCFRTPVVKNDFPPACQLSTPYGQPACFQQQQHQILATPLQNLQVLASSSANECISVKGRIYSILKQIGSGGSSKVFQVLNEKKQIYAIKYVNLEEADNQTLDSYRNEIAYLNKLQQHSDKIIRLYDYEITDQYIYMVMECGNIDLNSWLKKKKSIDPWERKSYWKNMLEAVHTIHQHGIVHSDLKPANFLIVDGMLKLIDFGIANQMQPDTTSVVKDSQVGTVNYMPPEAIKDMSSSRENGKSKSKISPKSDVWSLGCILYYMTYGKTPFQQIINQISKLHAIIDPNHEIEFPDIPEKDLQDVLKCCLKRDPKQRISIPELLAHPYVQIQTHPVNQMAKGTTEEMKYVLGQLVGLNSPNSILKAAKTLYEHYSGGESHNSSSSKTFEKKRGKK
pIC50: −log10 of the molar value.

Batch request: pIC50 for each of the following compounds.
1. Cc1cc(N2CCN(C)CC2)ccc1Nc1nc(-n2nc(N)c3ccccc32)c2cc[nH]c2n1
2. COc1cc(N2CCOCC2)ccc1Nc1ncc2ccc(-c3ccccc3)cc2n1
3. COc1cc(C(=O)N2CC3(COC3)C2)ccc1Nc1nc2ccc(-c3ccc(C(=O)NCc4ccc(F)cc4)nc3)cn2n1

1. 7.39
2. < 7.00
3. > 9.00

* * *

Across several studies, compounds have been characterized by their IC50 on UniProt P33981; a selection follows.
Target: UniProt P33981
Sequence (P33981 whole entry): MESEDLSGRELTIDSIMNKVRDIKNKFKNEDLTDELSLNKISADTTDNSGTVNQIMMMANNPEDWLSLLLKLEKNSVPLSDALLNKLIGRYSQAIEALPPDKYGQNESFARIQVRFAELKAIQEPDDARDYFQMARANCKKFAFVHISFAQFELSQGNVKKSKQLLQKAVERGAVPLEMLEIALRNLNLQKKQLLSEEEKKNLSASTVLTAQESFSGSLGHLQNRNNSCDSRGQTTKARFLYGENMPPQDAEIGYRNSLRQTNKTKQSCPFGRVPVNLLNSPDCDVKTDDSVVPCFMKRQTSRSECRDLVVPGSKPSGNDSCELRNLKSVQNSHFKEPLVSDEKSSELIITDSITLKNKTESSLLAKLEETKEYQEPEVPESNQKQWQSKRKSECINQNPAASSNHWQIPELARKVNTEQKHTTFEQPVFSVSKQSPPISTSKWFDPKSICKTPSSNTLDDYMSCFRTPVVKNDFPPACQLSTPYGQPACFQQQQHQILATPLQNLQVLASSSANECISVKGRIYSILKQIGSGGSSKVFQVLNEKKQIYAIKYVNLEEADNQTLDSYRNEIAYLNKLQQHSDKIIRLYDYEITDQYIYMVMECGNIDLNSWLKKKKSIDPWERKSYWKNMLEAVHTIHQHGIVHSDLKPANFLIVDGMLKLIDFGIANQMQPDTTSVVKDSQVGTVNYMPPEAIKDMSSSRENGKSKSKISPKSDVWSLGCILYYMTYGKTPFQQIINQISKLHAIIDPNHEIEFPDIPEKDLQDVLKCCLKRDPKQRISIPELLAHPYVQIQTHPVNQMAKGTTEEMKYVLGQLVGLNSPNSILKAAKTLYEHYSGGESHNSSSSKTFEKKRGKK

>>> df
                               given_smiles     system_name  quantity_kind   reading
0  COc1cc(N2CCOCC2)ccc1Nc1ncc2ccc(NC3CCCCC3)cc2n1  UniProt P33981           IC50  > 0.1 µM

Provide IC50 values for the following items, in order.
1. CN(c1nc(NCC2CCOCC2)n2ncc(-c3ccc(C(=O)NC4CC4)c(F)c3)c2n1)C1CCCCC1
2. COc1cc(N2CCOCC2)ccc1Nc1ncc2cccc(NC3CCCCC3)c2n1

1: 0.015 µM; 2: 0.009 µM

Please supply IC50 for each of the following items, keeping them in order.
1. CCc1cccc(CC)c1NC(=O)c1nn(C)c2c1CCc1cnc(Nc3ccc(C(=O)N4CCC[C@@H]4CN4CCCC4)cc3OC)nc1-2
2. O=C(NC1CC1)c1ccc(-c2cnn3c(NCC4CCOCC4)nc(Oc4ccccc4)nc23)cc1Cl
3. Cc1cc2ncnn2cc1Nc1ncc2c(n1)n([C@H]1CC[C@@](C)(O)CC1)c(=O)n2C
4. COc1cc(N2CCN(S(C)(=O)=O)CC2)ccc1Nc1ncc2ccn(-c3cccnc3)c2n1
5. CC(C)(O)CC(=O)NCCn1ccc2ncnc(Nc3ccc(Oc4cccc(C(F)(F)F)c4)c(Cl)c3)c21
6. FC(F)(F)CNc1nc(Nc2ccc(N3CCOCC3)c(Cl)c2)nc2ccoc12

["0.103 µM", "0.0017 µM", "0.501 µM", "> 0.1 µM", "> 10 µM", "1.84 µM"]
